Origin of values: patent US20030022283A1

Target: T1, Human NPY Y5 receptor (human, UniProt Q15761 1-445)
T1 construct: also called HUMAN Clone; human Y5
T1 sequence: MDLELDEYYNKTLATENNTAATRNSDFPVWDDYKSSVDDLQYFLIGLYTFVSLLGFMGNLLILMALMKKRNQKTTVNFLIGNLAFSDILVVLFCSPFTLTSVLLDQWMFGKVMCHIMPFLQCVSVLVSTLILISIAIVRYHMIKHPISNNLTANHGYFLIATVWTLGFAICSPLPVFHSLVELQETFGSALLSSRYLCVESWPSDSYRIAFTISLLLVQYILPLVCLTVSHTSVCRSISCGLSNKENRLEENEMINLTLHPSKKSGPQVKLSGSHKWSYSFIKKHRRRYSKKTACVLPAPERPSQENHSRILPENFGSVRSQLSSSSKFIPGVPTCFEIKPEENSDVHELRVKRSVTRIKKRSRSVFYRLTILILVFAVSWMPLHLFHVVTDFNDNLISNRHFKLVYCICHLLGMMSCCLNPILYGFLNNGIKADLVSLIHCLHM
Assay: competition with [125I]PYY, membranes of transiently transfected cells, average of two experiments
METRIC: pKi
Keep it numeric: pKi is minus log10 of the concentration in mol/L.

For record APLEPMYPGDYATHEQRAQYETQLRRYINTLTRPRY (ligand, UniProt P06303 30-65, looked up, mature; also called rPP; rat PP) [rat pancreatic polypeptide] the listed pKi is 6.36
